assayed target: recombinant Mcl-1 (residues 172-327) (Homo sapiens (Human), UniProt Q07820)
Sequence (Q07820 172-327): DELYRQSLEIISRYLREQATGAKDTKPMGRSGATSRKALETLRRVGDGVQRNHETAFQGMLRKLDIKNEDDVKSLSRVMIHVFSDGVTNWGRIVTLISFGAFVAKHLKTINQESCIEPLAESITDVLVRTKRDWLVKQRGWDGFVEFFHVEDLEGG
assay protocol: Fluorescence polarization anisotropy competition assay (FITC-Bak or FITC-Bim BH3 peptide) with Mcl-1
Type: binding
cond: Table 2; Ki bins given in μM; FITC-Bak or FITC-Bim peptide competition; Ki converted from IC50; read-out: Ki for Inhibition of Mcl-1
measurement type: Ki

IN: Supply reported Ki belonging to this compound: Cc1cc(OCCCc2c(C(=O)N3CCC(N4CCOCC4)CC3)[nH]c3ccccc23)cc(C)c1Cl [I-47]
OUT: 10 to 50 µM

IN: Answer with reported Ki of CCOC(=O)c1ccc(CNC(=O)c2[nH]c3c(-c4c(C)nn(C)c4C)cccc3c2CCCOc2cc(C)c(Cl)c(C)c2)o1 [I-266]
OUT: 10 to 50 µM

IN: Supply recorded Ki for Cc1cc(OCCCc2c(C(=O)NCCc3ccccc3)[nH]c3ccccc23)cc(C)c1Cl [I-42] here.
OUT: 10 to 50 µM

IN: Tell us which Ki value is on record for Cc1cc(OCCCc2c(C(=O)N3CCC(NC(=O)c4cccc(Oc5ccccc5)c4)CC3)[nH]c3ccccc23)cc(C)c1Cl [I-259]
OUT: 1 to 9.99 µM

IN: Identify Ki associated with the compound Cc1cc(OCCCc2c(C(=O)NCc3ccc(Oc4ccccc4)cc3)[nH]c3ccccc23)cc(C)c1Cl [I-45]
OUT: 10 to 50 µM

* * *

Hi there, I'd appreciate the recorded Ki for every entry that follows.
assayed target: recombinant Mcl-1 (residues 172-327) (Homo sapiens (Human))
assay protocol: Fluorescence polarization anisotropy competition assay (FITC-Bak or FITC-Bim BH3 peptide) with Mcl-1
Assay type: binding
cond: Table 2; Ki bins given in μM; FITC-Bak or FITC-Bim peptide competition; Ki converted from IC50; read-out: Ki for Inhibition of Mcl-1

IN: # return recorded Ki for entry `Cc1cc(OCCCc2c(C(=O)NCc3ccc(C(=O)O)o3)n(C)c3c(-c4c(C)nn(C)c4C)cccc23)cc(C)c1Cl`
OUT: 10 to 50 µM

IN: Please supply the value of reported Ki for the item `Cc1cc(OCCCc2c(C(=O)NCc3cccc(OC(F)(F)F)c3)[nH]c3c(-c4c(C)nn(C)c4C)cccc23)cc(C)c1Cl`
OUT: 1 to 9.99 µM

IN: Give the reported value of Ki for this record: `Cc1cc(OCCCc2c(C(=O)NCCc3c(C)n(C)c4ccccc34)[nH]c3ccccc23)cc(C)c1Cl`
OUT: 1 to 9.99 µM

IN: For `Cc1cc(OCCCc2c(C(=O)N3CCN(c4ccccc4)CC3)[nH]c3ccccc23)cc(C)c1Cl` , write its Ki.
OUT: 1 to 9.99 µM

IN: Identify the reported Ki for the following entry. `Cc1cc(OCCCc2c(C(=O)NCc3cccc(C(=O)NCc4ccccc4)c3)[nH]c3c(-c4c(C)n[nH]c4C)cccc23)cc(C)c1Cl`
OUT: 10 to 50 µM

IN: Check the records and state Ki for `CCOC(=O)CCNC(=O)c1[nH]c2ccccc2c1CCCOc1cc(C)c(Cl)c(C)c1`
OUT: 10 to 50 µM

IN: Look up Ki of `COC(=O)[C@H](Cc1ccccc1)NC(=O)CNC(=O)c1[nH]c2c(-c3c(C)nn(C)c3C)cccc2c1CCCOc1cc(C)c(Cl)c(C)c1` and report it.
OUT: 1 to 9.99 µM

IN: Indicate the recorded Ki value for this compound: `Cc1cc(OCCCc2c(C(=O)NCc3ccc(N4CCc5ccccc5C4)nc3)[nH]c3c(-c4c(C)nn(C)c4C)cccc23)cc(C)c1Cl`
OUT: 1 to 9.99 µM

IN: Assign Ki to the following record: `Cc1cc(OCCCc2c(C(=O)N3CCN(c4ccc(C(=O)O)cc4)CC3)[nH]c3cc(Cl)ccc23)cc(C)c1Cl`
OUT: 1 to 9.99 µM

IN: Answer with reported Ki of `Cc1cc(OCCCc2c(C(=O)N3CCC(NC(=O)OC(C)(C)C)CC3)[nH]c3ccccc23)cc(C)c1Cl`
OUT: 1 to 9.99 µM

IN: Return Ki for the following compound: `Cc1cc(CNC(=O)c2[nH]c3c(-c4c(C)nn(C)c4C)cccc3c2CCCOc2cc(C)c(Cl)c(C)c2)cc(OC(F)(F)F)c1`
OUT: 1 to 9.99 µM

IN: Return the recorded Ki value; entry: `Cc1cc(OCCCc2c(C(=O)NCc3ccccc3)[nH]c3ccccc23)cc(C)c1Cl`
OUT: 10 to 50 µM

IN: Given `CCOC(=O)c1ccc(CNC(=O)c2[nH]c3ccccc3c2CCCOc2cc(C)c(Cl)c(C)c2)o1` , respond with its Ki.
OUT: 1 to 9.99 µM

IN: Quick one: give measured Ki for `Cc1cc(OCCCc2c(C(=O)NCc3cc(C(=O)NC4Cc5ccccc5C4)cc(NC4Cc5ccccc5C4)n3)[nH]c3c(-c4c(C)nn(C)c4C)cccc23)cc(C)c1Cl`
OUT: 1 to 9.99 µM

IN: Give a short answer stating reported Ki for `CCOC(=O)c1ccc(CNC(=O)c2[nH]c3c(-c4c(C)n[nH]c4C)cccc3c2CCCOc2cc(C)c(Cl)c(C)c2)o1` .
OUT: 10 to 50 µM
